Numbers sourced from ChEMBL document CHEMBL4321822.

Tested on: Mus musculus
Assay Comment: Neuroprotection against oligomerized-amyloid beta (25 to 35)-induced Swiss mouse model of Alzheimer's disease assessed as increase in retention latency time at 0.3 to 3 mg/kg, ip administered once daily for 7 days measured 48 to 72 hrs post-last dose by step-through passive avoidance test
Assay type: functional, organism-based
The source made the active and inactive calls. No cut-off for these calls is given here.
Outcomes you can answer with include only these: active, inactive

Use the examples below as a reference point.
Please share the test call associated with CCCCCCCNC(=O)Oc1ccc2c(c1)CN1CCc3ccccc3C1N2C (centres undefined) .
active

Let us now turn to CN1c2ccc(OC(=O)NCCCCCCN3CCOCC3)cc2CN2CCc3ccccc3C21 (centres undefined)
active

Input CN1c2ccc(OC(=O)NCCCCCCN3CCc4ccccc4C3)cc2CN2CCc3ccccc3C21 (centres undefined)
active

Further cases:
Which outcome was entered for the compound CN1c2ccc(O)cc2CN2CCc3ccccc3C21 (centres undefined) in this test?
inactive
